Listed here are molecules together with their documented Cmax.
# experiment: Cmax in beagle dog at 10 mg/kg, po measured up to 24 hrs by LC-MS/MS analysis
# Format: ADME, organism-based, Canis lupus familiaris
# Set-up: dose 10 mg/kg, route oral
# condition_set: in vivo
Please give a number only; it is taken to be in µM.

Reference set (2 entries):
substance_smiles	units_text	Cmax
COC(=O)N[C@H](C(=O)N1CCC[C@H]1c1ncc(-c2ccc3c(ccc4cc(-c5cnc([C@@H]6CCCN6C(=O)[C@@H](NC(=O)OC)C(C)C)[nH]5)sc43)c2)[nH]1)C(C)C	µM	5
COC(=O)N[C@H](C(=O)N1CCC[C@H]1c1ncc(-c2ccc3c(c2)CCc2cc(-c4cnc([C@@H]5CCCN5C(=O)[C@@H](NC(=O)OC)C(C)C)[nH]4)sc2-3)[nH]1)C(C)C	µM	6

Turning now to a further molecule:
Record COC(=O)N[C@H](C(=O)N1CCC[C@H]1c1ncc(-c2ccc3c(c2)OCc2cc(-c4cnc([C@@H]5CCCN5C(=O)[C@@H](NC(=O)OC)C(C)C)[nH]4)sc2-3)[nH]1)C(C)C . Reported Cmax: 3
